biological target: hBuChE (Homo sapiens, UniProt P06276); experiment: biochemical; format: biochemical; conditions: mean ± SEM of three independent measurements, each in triplicate; read-out: hBuChE IC50
Sequence (P06276 29-602): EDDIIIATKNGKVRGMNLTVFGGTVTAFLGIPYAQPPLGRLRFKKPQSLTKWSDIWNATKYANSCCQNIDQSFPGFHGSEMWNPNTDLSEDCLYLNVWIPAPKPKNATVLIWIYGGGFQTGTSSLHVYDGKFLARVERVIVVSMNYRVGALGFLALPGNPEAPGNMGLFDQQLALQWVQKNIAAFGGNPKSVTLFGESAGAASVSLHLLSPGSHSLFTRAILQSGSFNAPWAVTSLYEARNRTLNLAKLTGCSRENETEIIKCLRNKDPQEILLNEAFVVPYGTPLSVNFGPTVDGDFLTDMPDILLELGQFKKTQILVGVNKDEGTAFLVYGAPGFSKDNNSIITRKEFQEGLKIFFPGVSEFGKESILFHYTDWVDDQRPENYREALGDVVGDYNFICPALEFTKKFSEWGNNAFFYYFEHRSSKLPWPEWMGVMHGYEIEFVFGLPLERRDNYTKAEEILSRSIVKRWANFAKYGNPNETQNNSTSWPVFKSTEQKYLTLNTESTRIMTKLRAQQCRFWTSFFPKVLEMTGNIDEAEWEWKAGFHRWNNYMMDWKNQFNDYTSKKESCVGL
pIC50: −log10 of the molar value.
# pIC50 listing for each entry below

Some entries whose results are on file:
Ask | Fill blank: measured pIC50 of the molecule COC1C=CC23c4cc5c(cc4CN(CC2OC(C)=O)C3C1)OCO5 (stereo not drawn) [Compound 1a, 11-O-Acetylhaemanthamine] is ____.
Reply | < 3.30

Ask | Query CCCCC(=O)OC1CN2Cc3cc4c(cc3C13C=CC(OC)CC23)OCO4 (stereo not drawn) [Compound 1d, 11-O-Pentanoylhaemanthamine] next
Reply | < 3.30

Proceeding to the next molecule to report its pIC50.
Ask | Fill blank: measured pIC50 of the molecule COC1C=CC23c4cc5c(cc4CN(CC2OC(=O)c2ccc([N+](=O)[O-])cc2)C3C1)OCO5 (stereo not drawn) [Compound 1m, 11-O-(4-Nitrobenzoyl)haemanthamine] is ____.
Reply | < 3.30

Data provenance is paper PMC6480460.
